targetOrTestSystem: T1, His–KPNB1 (UniProt Q14974 1-876)
T1 construct: KPNB1 (karyopherin β1, importin β1), full length, in a modified pET 30a vector; In the pull-down it was held on Ni-NTA by the His tag; also called full-length KPNB1; source: E. coli BL21 (DE3), purified (HisTrap HP)
T1 sequence (Q14974 whole entry): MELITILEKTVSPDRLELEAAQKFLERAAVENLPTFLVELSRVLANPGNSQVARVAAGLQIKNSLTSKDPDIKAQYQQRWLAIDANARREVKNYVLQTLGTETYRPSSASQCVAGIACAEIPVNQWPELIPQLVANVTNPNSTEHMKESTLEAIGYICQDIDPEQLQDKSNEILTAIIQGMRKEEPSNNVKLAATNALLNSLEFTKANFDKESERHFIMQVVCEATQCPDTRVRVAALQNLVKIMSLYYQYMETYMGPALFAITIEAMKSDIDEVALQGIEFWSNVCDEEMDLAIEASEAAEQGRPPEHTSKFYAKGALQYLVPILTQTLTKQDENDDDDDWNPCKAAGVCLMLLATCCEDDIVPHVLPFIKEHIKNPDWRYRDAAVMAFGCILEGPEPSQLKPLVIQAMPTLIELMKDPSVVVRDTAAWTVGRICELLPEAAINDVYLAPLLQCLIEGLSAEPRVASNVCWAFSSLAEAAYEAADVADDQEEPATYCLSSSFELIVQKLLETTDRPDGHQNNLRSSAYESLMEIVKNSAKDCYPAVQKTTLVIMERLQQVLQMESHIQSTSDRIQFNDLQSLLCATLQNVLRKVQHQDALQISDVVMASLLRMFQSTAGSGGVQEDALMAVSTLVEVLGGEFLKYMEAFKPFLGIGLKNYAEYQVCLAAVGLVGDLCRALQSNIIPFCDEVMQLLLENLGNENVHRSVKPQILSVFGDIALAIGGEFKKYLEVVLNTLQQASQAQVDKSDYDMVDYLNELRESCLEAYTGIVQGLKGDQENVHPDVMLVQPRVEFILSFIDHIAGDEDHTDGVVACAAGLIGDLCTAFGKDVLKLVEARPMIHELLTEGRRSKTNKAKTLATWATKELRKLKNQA
assayOverview: ITC; NFAT5_(171–253) at 600 μM titrated into 20 μM full-length KPNB1; 10 mM Na2HPO4, 1.8 mM KH2PO4, 2.7 mM KCl, pH 7.4, 150 mM NaCl; MicroCal PEAQ-ITC
assaySetup: both partners purified
pKd: −log10 of the molar value.
parameterMeasured: pKd

What the record says about NFAT5_(171–253) (domain or fragment, UniProt O94916 171-253, looked up, source: E. coli BL21 (DE3), purified) SCSMWMEDSPSNFSNMSTSSYNDNTEVPRKSRKRNPKQRPGVKRRDCEESNMDIFDADSAKAPHYVLSQLTTDNKGNSKAGNG : pKd is ~5.92
